Test system: LXRb:RXRa (NR concentration 270 nM, RXRa partner concentration 90 nM)
Assay: PBM binding z-score (relative to random genomic background probes); higher = stronger binding; sequences stand for … in GC…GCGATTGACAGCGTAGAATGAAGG
Measured PBM binding z-score by item
property_label: PBM binding z-score

1) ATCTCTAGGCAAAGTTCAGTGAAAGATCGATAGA : 0.819
2) AGAACGAGGGCACCCTGAGTTGATAGCAGAGTAG : -0.0951
3) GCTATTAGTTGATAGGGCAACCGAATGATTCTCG : -0.111
4) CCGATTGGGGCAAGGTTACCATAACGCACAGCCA : 0.649
5) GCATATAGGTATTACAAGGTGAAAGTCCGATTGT : 0.0719
6) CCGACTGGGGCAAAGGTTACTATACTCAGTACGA : 1.83
7) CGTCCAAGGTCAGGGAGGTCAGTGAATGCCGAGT : 4.43
8) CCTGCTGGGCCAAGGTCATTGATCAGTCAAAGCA : 2.99
9) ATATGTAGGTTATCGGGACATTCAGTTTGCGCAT : 0.858
10) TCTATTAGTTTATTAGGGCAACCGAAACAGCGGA : 1.25
11) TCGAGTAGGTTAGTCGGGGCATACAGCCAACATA : 0.458
12) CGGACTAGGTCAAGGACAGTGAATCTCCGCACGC : 1.01

---

Test system: PPARg:RXRa 270nM:90nM, anti-RXR (NR concentration 270 nM, RXRa partner concentration 90 nM)
Assay: PBM binding z-score (relative to random genomic background probes); higher = stronger binding; sequences stand for … in GC…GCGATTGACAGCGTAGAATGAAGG
Listing: PBM binding z-score of selected sequences
property_label: PBM binding z-score

1. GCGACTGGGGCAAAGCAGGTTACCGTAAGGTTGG : 1.45
2. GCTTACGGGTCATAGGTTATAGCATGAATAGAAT : 7.94
3. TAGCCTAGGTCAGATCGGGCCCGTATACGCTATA : 0.657
4. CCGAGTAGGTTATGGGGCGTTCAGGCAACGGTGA : 3.87
5. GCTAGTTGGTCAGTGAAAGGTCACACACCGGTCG : 5.57
6. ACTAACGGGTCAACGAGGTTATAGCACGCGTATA : 4.34
7. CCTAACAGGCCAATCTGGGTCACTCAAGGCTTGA : 2.35
8. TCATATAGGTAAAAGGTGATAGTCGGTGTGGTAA : 7.95
9. TCATATAGGTAAAGGTGAAACTCGAACGATATGA : 4.88
10. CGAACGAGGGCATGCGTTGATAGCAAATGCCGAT : 0.579
11. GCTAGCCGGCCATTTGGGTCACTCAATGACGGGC : 0.0131
12. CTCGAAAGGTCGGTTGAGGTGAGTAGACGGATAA : 1.51
13. CGAACGAGGACATGAGTTGATAGCAAATGCCGAT : 0.127
14. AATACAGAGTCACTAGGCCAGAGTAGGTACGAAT : 0.617
15. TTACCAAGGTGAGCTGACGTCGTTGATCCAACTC : 0.41
16. TCTAGTTGGTCACGGAGGTCACACAAGACGGGTA : 4.05
17. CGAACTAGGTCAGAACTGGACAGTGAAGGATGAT : 4.49
18. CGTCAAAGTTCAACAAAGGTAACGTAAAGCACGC : 5.42
19. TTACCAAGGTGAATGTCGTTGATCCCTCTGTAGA : 1.04
20. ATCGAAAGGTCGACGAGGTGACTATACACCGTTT : 3.2
21. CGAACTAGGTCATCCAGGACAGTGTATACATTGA : 6.1
22. CCGACTGGGGTAAGGTTACCATAACGCACAGCCA : 2.5
23. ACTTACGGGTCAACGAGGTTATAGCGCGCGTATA : 5.59
24. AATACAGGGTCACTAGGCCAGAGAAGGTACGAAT : 6.43
25. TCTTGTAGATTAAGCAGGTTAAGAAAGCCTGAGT : 1.37
26. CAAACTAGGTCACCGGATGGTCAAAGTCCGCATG : 7.39
27. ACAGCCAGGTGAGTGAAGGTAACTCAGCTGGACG : -0.463
28. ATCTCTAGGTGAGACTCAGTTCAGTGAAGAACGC : 0.846
29. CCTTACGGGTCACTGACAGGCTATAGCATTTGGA : 4.36
30. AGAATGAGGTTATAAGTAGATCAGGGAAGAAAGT : 2.94
31. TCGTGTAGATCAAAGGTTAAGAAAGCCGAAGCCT : 6.47
32. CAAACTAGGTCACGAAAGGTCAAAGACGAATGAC : 8.57
33. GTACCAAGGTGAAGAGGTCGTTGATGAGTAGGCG : 2.49
34. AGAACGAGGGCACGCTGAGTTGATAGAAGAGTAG : 1.54
35. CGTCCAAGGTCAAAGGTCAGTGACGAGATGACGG : 9.11
36. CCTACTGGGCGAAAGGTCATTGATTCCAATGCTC : 9.6
37. GCTATTAGTTGGAAGGGCAACCGAATGATTCTCG : 0.723
38. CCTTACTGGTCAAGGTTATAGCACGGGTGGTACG : 1.03
39. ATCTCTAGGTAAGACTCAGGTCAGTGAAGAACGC : 0.86
40. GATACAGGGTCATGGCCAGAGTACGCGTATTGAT : 6.38
41. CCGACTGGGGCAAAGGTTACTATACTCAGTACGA : 8.89
42. GGAACGAGGGCACTCGAGTTGATAGCATGGCGAT : 0.984
43. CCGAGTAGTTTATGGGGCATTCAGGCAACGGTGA : 0.448
44. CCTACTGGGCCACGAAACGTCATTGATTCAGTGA : 1.19
45. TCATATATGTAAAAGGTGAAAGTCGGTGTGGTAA : 6.15
46. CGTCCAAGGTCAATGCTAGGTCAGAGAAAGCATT : 4.86
47. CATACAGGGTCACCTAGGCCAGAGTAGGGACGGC : 5.1
48. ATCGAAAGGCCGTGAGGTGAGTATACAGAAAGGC : 0.177
49. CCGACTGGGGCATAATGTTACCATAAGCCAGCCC : 1.01
50. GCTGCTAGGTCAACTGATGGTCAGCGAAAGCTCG : 3.35
51. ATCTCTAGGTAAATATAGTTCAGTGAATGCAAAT : 0.903

All figures here come from the supplement of paper PMC6555819.
